No end group written: not given here.
HL50 tested on human red blood cells: recorded values

SUBSTANCE: RWWLRRIW-NH2 [W1R]
REL: >
HL50, µM: 200

SUBSTANCE: WWWLRRRW-NH2 [I7R]
REL: =
HL50, µM: 150

SUBSTANCE: WRWLRRIW-NH2 [W2R]
REL: =
HL50, µM: 100

SUBSTANCE: WWRLRRIW-NH2 [W3R]
REL: >
HL50, µM: 200

SUBSTANCE: WWWLRRIW-NH2 [WT]
REL: =
HL50, µM: 35

SUBSTANCE: WWWLRRIR-NH2 [W8R]
REL: >
HL50, µM: 200

SUBSTANCE: WWWRRRIW-NH2 [L4R]
REL: >
HL50, µM: 200
